Items are presented alongside their recorded Ratio (-BP/+BP), DF-25000007.
Target: T1, IL-18 binding protein (IL-18BP) (UniProt O95998 31-194)
T1 sequence (looked up): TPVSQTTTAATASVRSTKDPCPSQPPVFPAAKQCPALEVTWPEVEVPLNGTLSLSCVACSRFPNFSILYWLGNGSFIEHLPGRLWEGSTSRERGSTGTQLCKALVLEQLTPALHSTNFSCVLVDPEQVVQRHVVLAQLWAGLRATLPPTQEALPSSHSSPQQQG
Assay: cell-based or functional assay
Property Label: Ratio (-BP/+BP), DF-25000007

| Binder | Quantitative Result |
| --- | --- |
| IL-18 variant G3P, E6V, K53A, D54W, S55P, T63S, N91L, R104K (ligand) YFPKLVSKLSVIRNLNDQVLFIDQGNRPLFEDMTDSDMRDNAPRTIFIISMYAWPQPRGMAVSISVKSEKISTLSSENKIISFKEMNPPDLIKDTKSDIIFFQKSVPGHDNKMQFESSSYEGYFLASEKERDLFKLILKKEDELGDRSIMFTVQNED | 1.04 |
| IL-18 variant G3Q, E6N, D54Y, S55P, T63S, N91S, R104H (ligand) YFQKLNSKLSVIRNLNDQVLFIDQGNRPLFEDMTDSDMRDNAPRTIFIISMYKYPQPRGMAVSISVKSEKISTLSSENKIISFKEMNPPDSIKDTKSDIIFFQHSVPGHDNKMQFESSSYEGYFLASEKERDLFKLILKKEDELGDRSIMFTVQNED | 1.97 |
| IL-18 variant G3P, E6S, K53N, D54Y, S55P, T63I, N91K, R104H (ligand) YFPKLSSKLSVIRNLNDQVLFIDQGNRPLFEDMTDSDMRDNAPRTIFIISMYNYPQPRGMAVIISVKSEKISTLSSENKIISFKEMNPPDKIKDTKSDIIFFQHSVPGHDNKMQFESSSYEGYFLASEKERDLFKLILKKEDELGDRSIMFTVQNED | 0.95 |

Origin of the recorded values: patent US20240182536A1
